Recorded pIC50 values for a group of compounds are listed next.
- Tested System: acetylcholinesterase (Mus musculus)
- Construct: phosphate buffer solution containing the brain homogenate; from tissue; host or cells: mouse whole brain homogenate
- Sequence (P21836 32-614): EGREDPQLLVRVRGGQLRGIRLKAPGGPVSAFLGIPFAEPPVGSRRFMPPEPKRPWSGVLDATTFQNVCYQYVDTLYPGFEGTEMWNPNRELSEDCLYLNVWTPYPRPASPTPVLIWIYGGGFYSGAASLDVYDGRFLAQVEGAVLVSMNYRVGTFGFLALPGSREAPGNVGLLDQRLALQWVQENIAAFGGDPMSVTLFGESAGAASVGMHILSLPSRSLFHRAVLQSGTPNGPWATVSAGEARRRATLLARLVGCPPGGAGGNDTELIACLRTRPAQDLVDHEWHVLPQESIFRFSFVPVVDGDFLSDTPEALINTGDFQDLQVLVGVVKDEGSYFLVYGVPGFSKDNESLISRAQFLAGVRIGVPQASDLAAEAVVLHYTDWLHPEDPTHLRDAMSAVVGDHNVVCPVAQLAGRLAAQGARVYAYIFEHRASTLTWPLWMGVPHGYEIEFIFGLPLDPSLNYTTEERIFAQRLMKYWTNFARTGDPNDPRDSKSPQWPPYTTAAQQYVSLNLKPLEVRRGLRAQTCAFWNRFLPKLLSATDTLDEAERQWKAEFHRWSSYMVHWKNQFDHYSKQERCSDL
- Procedure Details: biochemical
pIC50: −log10 of the molar value. Counter-ions that a name gives are not always drawn.
Endpoint Name: pIC50

>>> data_value("Cc1cc(OCCC2c3ccc(OC(=O)N(C)C)cc3C=CCN2C)ccc1Cl (stereo not shown) [Test Compound 194, hydrochloride]")
6.99
>>> data_value("CN[C@@H](CCOc1ccc(Cl)cc1)c1ccc(OC(=O)N(C)C)cc1 [Test Compound 82, hydrochloride]")
7.08
>>> data_value("CNC(CCOc1ccc(Cl)c([N+](=O)[O-])c1)c1cccc(OC(=O)N(C)C)c1 (stereo not shown) [Test Compound 203, hydrochloride]")
7.31
>>> data_value("CN(C)C(=O)Oc1ccc(C(CCOc2cccc(F)c2)N(C)C)cc1 (stereo not shown) [Test Compound 70, hydrochloride]")
7.05
>>> data_value("CN[C@@H](CCOc1ccc([N+](=O)[O-])cc1)c1ccc(OC(=O)N(C)C)c(C)c1 [Test Compound 183, hydrochloride]")
7.59
>>> data_value("CN(C)C(=O)Oc1ccc2c(c1)C(CCOc1ccc(Cl)cc1)N(C)CC2 (stereo not shown) [Test Compound 191, hydrochloride]")
6.58
>>> data_value("CN(C)C(=O)Oc1ccc2c(c1)CCN(C)[C@@H]2CCOc1ccc([N+](=O)[O-])cc1Cl [Test Compound 190, hydrochloride]")
7.92
>>> data_value("CN(C)C(=O)Oc1ccc2c(c1)CCN(C)C2CCOc1ccc([N+](=O)[O-])cc1Cl (stereo not shown) [Test Compound 189, hydrochloride]")
8.22
>>> data_value("CN(C)C(=O)Oc1ccc(C(CCOc2ccc(Cl)cc2)N(C)C)cc1 (stereo not shown) [Test Compound 41, hydrochloride]")
7.10
>>> data_value("CN[C@H](CCOc1ccc([N+](=O)[O-])cc1Cl)c1ccc(OC(=O)N(C)C)cc1 [Test Compound 128, hydrochloride]")
7.82
>>> data_value("CN[C@H](CCOc1ccc(Cl)cc1)c1ccc(OC(=O)N(C)C)cc1 [Test Compound 62, hydrochloride]")
6.57
>>> data_value("CN(C)C(=O)Oc1ccc(C(CCOc2ccc([N+](=O)[O-])cc2Cl)N(C)C)cc1 (stereo not shown) [Test Compound 131, hydrochloride]")
7.24
>>> data_value("CNC(CCOc1ccc([N+](=O)[O-])cc1Cl)c1ccc(OC(=O)N(C)C)cc1 (stereo not shown) [Test Compound 124, hydrochloride]")
7.19
>>> data_value("CN(C)C(=O)Oc1ccc(C(CCOc2ccc([N+](=O)[O-])cc2)N(C)C)cc1 (stereo not shown) [Test Compound 89, hydrochloride]")
7.06
>>> data_value("CNC(CCOc1cccc(Cl)c1)c1ccc(OC(=O)N(C)C)cc1 (stereo not shown) [Test Compound 38, hydrochloride]")
6.76
>>> data_value("CN[C@@H](CCOc1ccc([N+](=O)[O-])cc1Cl)c1ccc(OC(=O)N(C)C)cc1 [Test Compound 127, hydrochloride]")
7.40
>>> data_value("CN[C@@H](CCOc1cccc(Cl)c1)c1ccc(OC(=O)N(C)C)cc1 [Test Compound 81, hydrochloride]")
6.49
>>> data_value("CNC(CCOc1ccc(F)cc1)c1ccc(OC(=O)N(C)C)cc1 (stereo not shown) [Test Compound 30, hydrochloride]")
6.10
>>> data_value("CN[C@@H](CCOc1ccc(F)c(F)c1)c1ccc(OC(=O)N(C)C)cc1 [Test Compound 162, hydrochloride]")
6.10
>>> data_value("CN[C@H](CCOc1cccc(Cl)c1)c1ccc(OC(=O)N(C)C)cc1 [Test Compound 61, hydrochloride]")
6.64
>>> data_value("CNC(CCOc1ccc(Cl)cc1)c1ccc(OC(=O)N(C)C)cc1 (stereo not shown) [Test Compound 16, hydrochloride]")
6.68
>>> data_value("CN[C@H](CCOc1ccc([N+](=O)[O-])cc1)c1ccc(OC(=O)N(C)C)c(C)c1 [Test Compound 184, hydrochloride]")
7.25
>>> data_value("CNC(CCOc1ccc(Cl)c(F)c1)c1ccc(OC(=O)N(C)C)cc1 (stereo not shown) [Test Compound 55, hydrochloride]")
6.55
>>> data_value("CN(C)C(=O)Oc1cccc(C(CCOc2ccc([N+](=O)[O-])cc2)N(C)C)c1 (stereo not shown) [Test Compound 104, hydrochloride]")
7.28
>>> data_value("CNC(CCOc1ccc(F)c(F)c1)c1ccc(OC(=O)N(C)C)cc1 (stereo not shown) [Test Compound 54, hydrochloride]")
6.17
>>> data_value("CN(C)C(=O)Oc1ccc([C@@H](CCOc2ccc([N+](=O)[O-])cc2)N(C)C)cc1 [Test Compound 102, hydrochloride]")
6.77
>>> data_value("CN(C)C(=O)Oc1ccc([C@@H](CCOc2ccc([N+](=O)[O-])cc2Cl)N(C)C)cc1 [Test Compound 130, hydrochloride]")
7.38
>>> data_value("CNC(CCOc1cccc2ccccc12)c1ccc(OC(=O)N(C)C)cc1 (stereo not shown) [Test Compound 179, hydrochloride]")
6.43
